# Tested on: ABUTH
# ASSAY_TEXT: Post-emergence herbicidal action
# Type: in vivo
# CONDITION_DESCRIPTION: Table 5, post-emergence (PO), 320 g/ha, assessed after about 3 weeks
Items are presented alongside their recorded Herbicidal action against ABUTH.
Give a bare numeral; the unit % is implied.

Known results for compounds:
> print(dat)
                           structure.smiles  test.value
1  Nc1cc(-c2ccc3occc3c2)nc(C(=O)OCc2ccc(F)c(F)c2F)c1Cl         100
2  Nc1cc(-c2ccc3ccsc3c2)nc(C(=O)OCc2ccccc2F)c1Cl         100
3  Nc1cc(-c2ccc3occc3c2)nc(C(=O)OCc2ccc(F)cc2)c1Cl         100
4  Nc1c(F)c(-c2ccc3occc3c2)nc(C(=O)OCc2ccc(F)cc2)c1Cl          90
5  Nc1cc(-c2ccc3sccc3c2)nc(C(=O)OCc2cccc(Cl)c2)c1Cl          90
6  Nc1cc(-c2ccc3ccsc3c2)nc(C(=O)OCc2cccc(F)c2)c1Cl         100
7  COc1ccc(COC(=O)c2nc(-c3ccc4ccoc4c3)c(F)c(N)c2Cl)cc1         100

Query `Nc1cc(-c2ccc3ncsc3c2)nc(C(=O)OCc2cccc(F)c2)c1Cl` yields Herbicidal action against ABUTH of 100
